B1: TPR 5TU (parent)
chain: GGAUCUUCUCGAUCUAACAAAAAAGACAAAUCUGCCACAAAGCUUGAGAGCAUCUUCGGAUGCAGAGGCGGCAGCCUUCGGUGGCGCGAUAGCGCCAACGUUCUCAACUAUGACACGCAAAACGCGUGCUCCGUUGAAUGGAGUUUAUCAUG

Variants of: B1
Assay: polymerase ribozyme fitness, log enrichment relative to wild type (log ratio); higher = more active; in vitro selection for triplet polymerase activity
Variants at the floor of the assay were thinned out.
valueKind: polymerase ribozyme fitness (log ratio)

Please review the entries below; each comes with its answer.
Consider C5A A28U U55A C57G C96U G141U . Its measured polymerase ribozyme fitness (log ratio) is ≤ -4.2

Consider C5U A20C A29G A115C U130G C132U U146C . Its measured polymerase ribozyme fitness (log ratio) is ≤ -4.2

Consider A24U A26C C27G C36G G81A A98G G136U U139G A142C . Its measured polymerase ribozyme fitness (log ratio) is ≤ -4.2

Consider C18U C36A . Its measured polymerase ribozyme fitness (log ratio) is -4.01

Consider C54U A115G . Its measured polymerase ribozyme fitness (log ratio) is -3.13

New cases:
Consider A20G G50C C54G C105G A106U G133C U151A . Its measured polymerase ribozyme fitness (log ratio) is ≤ -4.2

Consider A37U G80C G81C U102A A110U C118G A120U G133U . Its measured polymerase ribozyme fitness (log ratio) is ≤ -4.2

Consider C76G C96G C99G G140U U148G . Its measured polymerase ribozyme fitness (log ratio) is ≤ -4.2

Consider U53G A115C G143A . Its measured polymerase ribozyme fitness (log ratio) is -4.06

Consider C85G G128C . Its measured polymerase ribozyme fitness (log ratio) is ≤ -4.2

Consider A40U G68A C116A A137U . Its measured polymerase ribozyme fitness (log ratio) is ≤ -4.2

Consider A60G C129G . Its measured polymerase ribozyme fitness (log ratio) is -2.25

Consider A12U A28U A41U U53G U56G G84A A91G C93G G140U . Its measured polymerase ribozyme fitness (log ratio) is ≤ -4.2
